Biological target: hNav1.7 (Homo sapiens (Human), UniProt Q15858)
Assay: Tritiated compound binding to membranes from cells expressing hNav1.7 and the β1 subunit, competitive binding (LBA, Ex. 243A)
Conditions: 100 pM [3H]compound, 18 h, room temperature; read-out: Nav1.7 LBA (Ex. 243A) IC50
Sequence (Q15858 whole entry, looked up): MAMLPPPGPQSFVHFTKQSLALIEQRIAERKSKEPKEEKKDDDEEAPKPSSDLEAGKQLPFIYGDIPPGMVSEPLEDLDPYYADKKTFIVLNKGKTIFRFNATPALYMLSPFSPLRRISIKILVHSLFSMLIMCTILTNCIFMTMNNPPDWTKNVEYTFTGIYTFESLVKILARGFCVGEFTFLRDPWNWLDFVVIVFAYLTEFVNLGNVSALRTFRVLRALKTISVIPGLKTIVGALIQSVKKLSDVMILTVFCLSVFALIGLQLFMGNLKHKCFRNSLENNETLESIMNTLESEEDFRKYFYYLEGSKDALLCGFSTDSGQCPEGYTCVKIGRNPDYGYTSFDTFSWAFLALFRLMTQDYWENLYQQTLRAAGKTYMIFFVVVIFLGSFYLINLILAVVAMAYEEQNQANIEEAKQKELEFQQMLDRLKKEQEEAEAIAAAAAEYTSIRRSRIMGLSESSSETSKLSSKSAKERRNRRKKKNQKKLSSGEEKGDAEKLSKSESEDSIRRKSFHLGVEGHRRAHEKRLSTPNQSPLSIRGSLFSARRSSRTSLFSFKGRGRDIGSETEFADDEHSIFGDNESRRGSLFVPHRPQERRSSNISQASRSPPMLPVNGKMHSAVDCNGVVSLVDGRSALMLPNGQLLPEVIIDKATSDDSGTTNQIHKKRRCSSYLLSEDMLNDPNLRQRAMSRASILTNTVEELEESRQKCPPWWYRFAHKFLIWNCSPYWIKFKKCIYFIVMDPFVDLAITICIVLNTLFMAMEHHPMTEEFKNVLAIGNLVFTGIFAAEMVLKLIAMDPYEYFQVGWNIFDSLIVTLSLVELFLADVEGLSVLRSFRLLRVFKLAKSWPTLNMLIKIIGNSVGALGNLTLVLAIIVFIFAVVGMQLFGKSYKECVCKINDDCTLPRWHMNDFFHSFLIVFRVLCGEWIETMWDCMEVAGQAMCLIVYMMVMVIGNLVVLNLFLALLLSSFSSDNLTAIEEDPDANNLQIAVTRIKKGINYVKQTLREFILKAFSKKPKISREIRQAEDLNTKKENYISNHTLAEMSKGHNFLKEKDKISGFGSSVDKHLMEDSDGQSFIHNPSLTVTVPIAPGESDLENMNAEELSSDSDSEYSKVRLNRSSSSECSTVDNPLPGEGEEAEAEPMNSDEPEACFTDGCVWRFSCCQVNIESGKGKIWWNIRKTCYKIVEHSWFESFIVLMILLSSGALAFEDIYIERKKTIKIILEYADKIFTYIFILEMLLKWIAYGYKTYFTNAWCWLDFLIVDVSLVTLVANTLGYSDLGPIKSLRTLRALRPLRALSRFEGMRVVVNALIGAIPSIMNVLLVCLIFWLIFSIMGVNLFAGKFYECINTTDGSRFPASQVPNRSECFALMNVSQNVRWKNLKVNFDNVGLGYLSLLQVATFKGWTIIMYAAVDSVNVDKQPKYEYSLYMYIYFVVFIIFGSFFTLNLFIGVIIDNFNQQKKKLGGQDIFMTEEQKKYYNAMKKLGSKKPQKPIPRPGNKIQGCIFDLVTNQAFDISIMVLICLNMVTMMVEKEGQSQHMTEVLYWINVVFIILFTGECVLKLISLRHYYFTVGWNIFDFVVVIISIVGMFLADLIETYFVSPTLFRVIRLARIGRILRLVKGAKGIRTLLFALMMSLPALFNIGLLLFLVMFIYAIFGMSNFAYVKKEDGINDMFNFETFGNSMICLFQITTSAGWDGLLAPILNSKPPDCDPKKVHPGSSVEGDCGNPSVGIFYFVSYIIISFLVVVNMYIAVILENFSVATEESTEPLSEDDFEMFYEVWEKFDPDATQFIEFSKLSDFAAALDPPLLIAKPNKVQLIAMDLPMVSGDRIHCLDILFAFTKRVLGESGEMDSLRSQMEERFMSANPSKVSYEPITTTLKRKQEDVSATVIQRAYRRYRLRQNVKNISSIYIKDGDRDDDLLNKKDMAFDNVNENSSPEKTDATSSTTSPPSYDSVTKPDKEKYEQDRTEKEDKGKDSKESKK
Sequence (Q07699 whole entry partner, looked up): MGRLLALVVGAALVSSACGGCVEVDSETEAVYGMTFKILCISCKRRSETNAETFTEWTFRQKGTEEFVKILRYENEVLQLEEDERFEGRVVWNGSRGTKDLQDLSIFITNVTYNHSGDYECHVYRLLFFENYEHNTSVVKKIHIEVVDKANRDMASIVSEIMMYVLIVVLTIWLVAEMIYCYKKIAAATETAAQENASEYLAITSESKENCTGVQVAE
Structures can show the parent of a compound that is named as a salt.
API: label(entry) gives Condition met if the entry's IC50 is strictly smaller than 70 nM; on equality or larger values it gives Condition not met.

Solved cases (6 shown):
INSERT INTO results (compound, assay_target, class) VALUES
  ('O=S(=O)(Nc1cccc(F)n1)c1cc(Cl)c(N[C@H]2CCCC[C@@H]2N2CCC(O)C2)cc1F (stereo partly drawn)', 'hNav1.7 (Homo sapiens (Human), UniProt Q15858)', 'Condition met'),
  ('CN(C)[C@H]1CC[C@H](C(F)(F)F)C[C@@H]1Nc1cc(F)c(S(=O)(=O)Nc2nccs2)cc1Cl', 'hNav1.7 (Homo sapiens (Human), UniProt Q15858)', 'Condition met'),
  ('CN[C@H]1CCCC[C@@H]1Nc1cc(F)c(S(=O)(=O)Nc2nccs2)cc1C1CC1 [Example 51, formate]', 'hNav1.7 (Homo sapiens (Human), UniProt Q15858)', 'Condition not met'),
  ('O=S(=O)(Nc1nccs1)c1cc(Cl)c(N[C@H]2CCCC[C@@H]2N2CC(O)C2)cc1F', 'hNav1.7 (Homo sapiens (Human), UniProt Q15858)', 'Condition not met'),
  ('CCN[C@@H]1CCCC[C@H]1Oc1cc(F)c(S(=O)(=O)Nc2nccs2)cc1Cl', 'hNav1.7 (Homo sapiens (Human), UniProt Q15858)', 'Condition not met'),
  ('CN(C)[C@H]1CC[C@H](c2cccc(C(F)(F)F)c2)C[C@@H]1Nc1cc(F)c(S(=O)(=O)Nc2nccs2)cc1Cl', 'hNav1.7 (Homo sapiens (Human), UniProt Q15858)', 'Condition met');

In the record for "CN(C)[C@H]1CCCC[C@@H]1Nc1cc(F)c(S(=O)(=O)Nc2ncc(F)s2)cc1Cl" , is IC50 less than 70 nM?
Condition met

Entry "CN(C)[C@H]1CC[C@@H](c2cccc(C(F)(F)F)c2)C[C@@H]1Nc1cc(F)c(S(=O)(=O)Nc2nccs2)cc1Cl" please
Condition not met

Would you mind doing "CN(C)[C@@H]1CC[C@@H](C(F)(F)F)C[C@H]1Nc1cc(F)c(S(=O)(=O)Nc2nccs2)cc1Cl" as well?
Condition not met

###

Target: hNav1.7 (Homo sapiens (Human))
Test: Patch voltage clamp electrophysiology assay (EP), Syncropatch 384PE, CHO cells expressing Nav1.7
Format: cell-based
Conditions: holding potential -50 mV; […] compound incubation; read-out: EP_SP hNav1.7 (Ex. 243B) IC50
Sequence (Q15858 other isoform, or with tags, fused parts or gaps): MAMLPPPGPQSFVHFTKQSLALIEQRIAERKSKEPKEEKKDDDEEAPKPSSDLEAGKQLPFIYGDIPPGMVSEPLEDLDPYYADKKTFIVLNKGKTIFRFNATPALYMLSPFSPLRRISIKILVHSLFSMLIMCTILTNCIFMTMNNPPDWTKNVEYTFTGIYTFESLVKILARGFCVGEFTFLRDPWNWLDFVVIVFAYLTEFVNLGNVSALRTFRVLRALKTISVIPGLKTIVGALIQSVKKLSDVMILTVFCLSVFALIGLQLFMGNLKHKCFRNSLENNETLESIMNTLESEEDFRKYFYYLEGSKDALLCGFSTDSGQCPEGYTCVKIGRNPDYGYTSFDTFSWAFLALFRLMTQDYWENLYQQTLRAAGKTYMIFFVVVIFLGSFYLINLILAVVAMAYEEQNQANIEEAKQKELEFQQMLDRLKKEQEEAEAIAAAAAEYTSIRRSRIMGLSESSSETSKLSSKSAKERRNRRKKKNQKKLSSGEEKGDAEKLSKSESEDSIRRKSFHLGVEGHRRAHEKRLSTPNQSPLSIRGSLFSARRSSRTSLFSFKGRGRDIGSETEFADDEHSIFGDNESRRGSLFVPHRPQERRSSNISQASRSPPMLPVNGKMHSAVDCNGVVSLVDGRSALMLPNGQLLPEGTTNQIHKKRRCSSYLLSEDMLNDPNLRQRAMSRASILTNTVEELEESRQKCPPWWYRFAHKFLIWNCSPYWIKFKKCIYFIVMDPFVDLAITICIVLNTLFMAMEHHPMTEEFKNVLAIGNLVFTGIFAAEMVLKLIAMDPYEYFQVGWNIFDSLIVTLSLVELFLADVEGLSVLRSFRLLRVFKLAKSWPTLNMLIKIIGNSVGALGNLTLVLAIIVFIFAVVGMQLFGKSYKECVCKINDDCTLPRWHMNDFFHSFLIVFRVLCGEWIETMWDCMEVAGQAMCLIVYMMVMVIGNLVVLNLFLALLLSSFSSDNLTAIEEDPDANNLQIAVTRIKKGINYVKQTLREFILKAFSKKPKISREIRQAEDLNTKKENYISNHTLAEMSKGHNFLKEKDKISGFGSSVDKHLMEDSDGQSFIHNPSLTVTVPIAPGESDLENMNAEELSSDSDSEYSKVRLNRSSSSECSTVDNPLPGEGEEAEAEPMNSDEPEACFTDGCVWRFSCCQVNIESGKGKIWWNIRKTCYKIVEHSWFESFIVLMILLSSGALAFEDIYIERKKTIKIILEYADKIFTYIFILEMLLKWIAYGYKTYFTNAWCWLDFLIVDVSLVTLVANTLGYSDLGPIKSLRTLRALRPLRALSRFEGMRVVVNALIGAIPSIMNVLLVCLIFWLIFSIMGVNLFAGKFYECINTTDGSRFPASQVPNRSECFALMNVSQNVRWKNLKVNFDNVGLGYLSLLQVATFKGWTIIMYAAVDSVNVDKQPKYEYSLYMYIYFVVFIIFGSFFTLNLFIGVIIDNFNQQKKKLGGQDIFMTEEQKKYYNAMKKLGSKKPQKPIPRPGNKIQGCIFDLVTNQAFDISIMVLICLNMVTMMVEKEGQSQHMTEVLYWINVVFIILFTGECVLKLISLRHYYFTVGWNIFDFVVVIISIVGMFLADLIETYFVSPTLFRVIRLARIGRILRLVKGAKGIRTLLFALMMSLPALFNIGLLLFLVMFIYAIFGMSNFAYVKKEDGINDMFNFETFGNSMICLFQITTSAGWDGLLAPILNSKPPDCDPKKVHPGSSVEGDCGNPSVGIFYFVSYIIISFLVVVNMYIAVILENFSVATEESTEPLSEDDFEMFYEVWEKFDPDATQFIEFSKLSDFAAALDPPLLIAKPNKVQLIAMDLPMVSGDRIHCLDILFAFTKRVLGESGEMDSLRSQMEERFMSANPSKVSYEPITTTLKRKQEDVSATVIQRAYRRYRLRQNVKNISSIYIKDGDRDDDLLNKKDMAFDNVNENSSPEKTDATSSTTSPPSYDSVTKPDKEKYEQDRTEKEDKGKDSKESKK
Where a name gives a salt, the structure may show the parent alone.
Metric: log10 of IC50 (log10 of the value in nM)
Values reflect log10 of reported IC50 (nM).

Past entries and their recorded results:
INSERT INTO results (compound, assay_target, observed) VALUES
  ('CN(C)[C@H]1CC(F)(F)CC[C@@H]1Nc1cc(F)c(S(=O)(=O)Nc2nccs2)cc1Cl [Example 187, formate]', 'hNav1.7 (Homo sapiens (Human))', 0.88),
  ('CN(CC1(F)CC1)[C@H]1CCCC[C@@H]1Nc1cc(F)c(S(=O)(=O)Nc2nccs2)cc1Cl', 'hNav1.7 (Homo sapiens (Human))', 1.48),
  ('O=S(=O)(Nc1nccs1)c1cc(Cl)c(N[C@H]2CCCC[C@@H]2N2CCC3(CC2)CC3)cc1F [Example 154, formate]', 'hNav1.7 (Homo sapiens (Human))', 2.00),
  ('CN(CCO)[C@H]1C[C@@H](C(F)(F)F)CC[C@@H]1Nc1cc(F)c(S(=O)(=O)Nc2nccs2)cc1Cl', 'hNav1.7 (Homo sapiens (Human))', 0.51);

Value lookup for log10 of IC50; key = "CN(C)[C@@H]1C[C@@H]2C[C@@H]2C[C@H]1Nc1cc(F)c(S(=O)(=O)Nc2nccs2)cc1Cl"
2.46

Also Cc1nc(NS(=O)(=O)c2cc(Cl)c(N[C@H]3CCCC[C@@H]3N(C)C)cc2F)sc1F [Example 211, formate] ?
2.08

Moving on to the next compound: CN(C)[C@H]1CCC(F)C[C@@H]1Nc1cc(F)c(S(=O)(=O)Nc2nccs2)cc1Cl (stereo partly drawn) [Example 191, formate]
1.60

###

Biological target: UniProt Q15858
Experiment: Patch voltage clamp electrophysiology assay (EP), Syncropatch 384PE, CHO cells expressing Nav1.7
Type: cell-based
Conditions: holding potential -50 mV; […] compound incubation; read-out: EP_SP hNav1.7 (Ex. 243B) IC50
Metric: IC50 (nM)
Kindly provide the numeric value in nM only, without the unit symbol.

Consider the reported IC50 for these compounds:
INSERT INTO measurements (compound, quantity_unit, observed) VALUES
  ('O=S(=O)(Nc1nccs1)c1cc(Cl)c(N[C@H]2CCCC[C@@H]2N2CCC[C@](F)(CO)C2)cc1F', 'nM', 6.59),
  ('CN(C)[C@H]1CCCC[C@@H]1N1CCOc2cc(S(=O)(=O)Nc3nccs3)c(F)cc21', 'nM', 14);

Consider now this further compound.
Entry CN(CC(O)CF)[C@H]1CCCC[C@@H]1Nc1cc(F)c(S(=O)(=O)Nc2nccs2)cc1Cl (single isomer, unassigned) [Example 118] , system UniProt Q15858: what IC50 was measured?
8.51

###

Below, each entry is listed alongside its reported pIC50.
Biological target: hNav1.7 (Homo sapiens (Human), UniProt Q15858)
Assay: Tritiated compound binding to membranes from cells expressing hNav1.7 and the β1 subunit, modified protocol (LBA, Ex. 243B)
Details: 300 pM [3H]compound, room temperature, read-out: Nav1.7 LBA (Ex. 243B) IC50
Note: pIC50 values are expressed as the negative base-10 logarithm of concentration in M.

INSERT INTO measurements (compound, assay_target, metric, observed) VALUES
  ('CN(CC(O)C(F)F)[C@H]1CCCC[C@@H]1Nc1cc(F)c(S(=O)(=O)Nc2nccs2)cc1Cl (single isomer, unassigned) [Example 126]', 'hNav1.7 (Homo sapiens (Human), UniProt Q15858)', 'pIC50', 7.06),
  ('CN1CC[C@@H](C(=O)N(C)[C@H]2CCCC[C@@H]2Nc2cc(F)c(S(=O)(=O)Nc3nccs3)cc2Cl)C1 [Example 200]', 'hNav1.7 (Homo sapiens (Human), UniProt Q15858)', 'pIC50', 6.82),
  ('CN(C)[C@H]1CC=C(C(F)(F)F)C[C@@H]1Nc1cc(F)c(S(=O)(=O)Nc2nccs2)cc1Cl [Example 130]', 'hNav1.7 (Homo sapiens (Human), UniProt Q15858)', 'pIC50', 7.12);

Here's the next entry for you.
Lab note: need pIC50 with hNav1.7 (Homo sapiens (Human), UniProt Q15858) for entry O=S(=O)(Nc1nccs1)c1cc(Cl)c(N[C@H]2CCCC[C@@H]2N2CCC[C@](F)(CO)C2)cc1F [Example 212] , please look it up.
6.96

###

Molecular target: hNav1.7 (Homo sapiens (Human))
Assay: Tritiated compound binding to membranes from cells expressing hNav1.7 and the β1 subunit, competitive binding (LBA, Ex. 243A)
Details: 100 pM [3H]compound, 18 h, room temperature; read-out: Nav1.7 LBA (Ex. 243A) IC50
Method: Tritiated Compound Binding to Membranes Isolated from Cells that Heterologously Express hNav1.7 and the β1 Subunit Preparation of membranes containing recombinantly expressed sodium channels: Frozen recombinant cell pellets were thawed on ice and diluted to 4 times the cell pellet weight with ice cold 50 mM Tris HCl, pH 7.4 buffer. […] Protein concentrations were determined by Bradford Assay and the membranes were stored at −80° C. […]
Structures can show the parent of a compound that is named as a salt.
Metric: pIC50
Lab note — pIC50 values are minus log10 of concentrations in M.

Use the examples below as a reference point.
INSERT INTO assay_data (compound, observed) VALUES
  ('O=S(=O)(Nc1nccs1)c1cc(Cl)c(N[C@H]2CCCC[C@@H]2N2CC[C@@H](O)C2)cc1F [Example 68]', 7.78),
  ('CN(C1CNC1)[C@H]1CCCC[C@@H]1Oc1cc(F)c(S(=O)(=O)Nc2nccs2)cc1C1CC1 [Example 90, formate]', 8.58);

Here is another compound to look at.
pIC50 lookup needed for CN1CC(N(C)[C@H]2CCCC[C@@H]2Nc2cc(F)c(S(=O)(=O)Nc3cccc(F)n3)cc2Cl)C1 [Example 63] , thanks.
8.01

###

Quick reference: IC50 of the listed items.
Biological target: hNav1.7 (Homo sapiens (Human), UniProt Q15858)
Experiment: Tritiated compound binding to membranes from cells expressing hNav1.7 and the β1 subunit, competitive binding (LBA, Ex. 243A)
Conditions: 100 pM [3H]compound, 18 h, room temperature; read-out: Nav1.7 (LBA) (Ex. 243A)
Please respond with the number in µM and leave the unit unwritten.

A selection of reference data follows.
INSERT INTO assay_data (molecule, observed) VALUES
  ('CCN(CC)[C@H]1CCCC[C@@H]1Nc1cc(F)c(S(=O)(=O)Nc2nccs2)cc1Cl [Example 17]', 0.237),
  ('CN(C)[C@H]1CCCC[C@@H]1Nc1cc(F)c(S(=O)(=O)Nc2nccs2)cc1C1CC1 [Example 15]', 0.0269),
  ('CN(C)[C@H]1CCCC[C@@H]1Nc1cc(F)c(S(=O)(=O)Nc2ccncn2)cc1Cl [Example 11]', 0.126),
  ('CCN[C@H]1CCCC[C@@H]1Nc1cc(F)c(S(=O)(=O)Nc2nccs2)cc1Cl [Example 4, 2,2,2-trifluoroacetate]', 0.00415),
  ('O=S(=O)(Nc1nccs1)c1cc(Cl)c(N[C@H]2CCCC[C@@H]2NC2CCC2)cc1F [Example 16]', 0.325);

For the next question, use this molecule.
Need IC50 of CN(C)[C@H]1CCC[C@@H]1Nc1cc(F)c(S(=O)(=O)Nc2nccs2)cc1Cl [Example 12] , thanks.
0.165
